Tested on: ACHN renal
assay overview: NCI-60 one-dose screen, 48 h
experimental setup: 10 µM unless noted
Experimental: Growth inhibition of the ACHN human tumor cell line is measured as a screen for anti-cancer activity. Cells are grown in 96 well plates and exposed to the test compound for 48 hours. Compounds are tested at a single concentration, which is 10^-5 M for most compounds. The reported endpoint is percent growth (GI% or GIPRCNT), where numbers from 0 - 100% represent growth inhibition, and numbers from -100% - 0 represent cell death. For example, a value of 40 represents 60% growth inhibition. […]
Compounds without any hit were thinned out: in the full panel of roughly 83,000, 20% have a hit. Activity calls are given as the source filed them. Rule for the calls: active = growth percent below 10; inactive = the rest.
Possible outcomes: Y (active), N (inactive)

INSERT INTO results (compound, label_value) VALUES
  ('COc1cccc(Cn2cc3c(c2)-c2oncc2CC3)c1', 'N'),
  ('COc1ccc2cc(C(C)C(=O)Nc3ccc(S(=O)(=O)Nc4cc(C)on4)cc3)ccc2c1 (stereo not given)', 'N'),
  ('Oc1ccc([S+](c2ccc(O)cc2)c2ccc(O)cc2)cc1', 'N'),
  ('Oc1ccc(CN(Cc2ccc(C(F)(F)F)cc2)Cc2ccc(O)c3ncccc23)c2cccnc12', 'Y'),
  ('CCCNC(=O)Oc1ccc(/C(=C(/C)Cc2ccc(OC)cc2)c2ccc(OCCN3CCCCC3)cc2)cc1', 'N'),
  ('COc1ccc(Cn2cc3c(c2-c2ccccc2)CCc2cnoc2-3)cc1OC', 'N'),
  ('Nc1ncn([C@@H]2O[C@H](CO)[C@@H](O)C2(F)F)c(=O)n1', 'Y'),
  ('CC(=O)OCC(=O)[C@@]1(O)[C@H](C)C[C@H]2[C@@H]3C=C(C)C4=Cc5c(cnn5-c5ccc(F)cc5)C[C@]4(C)[C@H]3[C@@H](O)C[C@@]21C', 'N'),
  ('CCCCCCCCc1ccc(CCC(N)(CO)CO)cc1', 'Y'),
  ('COc1cc2ncnc(-n3ncc4cc(NC(=O)Nc5ccc(Cl)c(Cl)c5)ccc43)c2cc1OC', 'Y');

* * *

Test system: MDA-MB-231 breast
assay overview: NCI-60 one-dose screen, 48 h
experimental setup: 10 µM unless noted
Compounds without any hit were thinned out: in the full panel of roughly 83,000, 20% have a hit. Activity calls are given as the source filed them. How the source made its calls: active means growth percent below 10; inactive means the rest.
Outcome codes: True for active, False for inactive

INSERT INTO measurements (compound, label_value) VALUES
  ('CCC(C)CC(N)O (configuration not stated)', 'False'),
  ('COc1cc(OC)cc(-c2ccc(-c3ccc(C(=N)N)cc3)s2)c1', 'True'),
  ('O=C(/C=C/c1c[nH]c2ccccc12)c1cc2ccccc2o1', 'False'),
  ('CC(=O)CCS(=O)c1ccccc1 (configuration not stated)', 'False'),
  ('COc1ccc(Cn2cc3c(c2-c2ccccc2)CCc2cnoc2-3)cc1OC', 'False'),
  ('Cc1nc2c(nnn2-c2ccccc2)c2nc(-c3ccccc3)oc(=O)c12', 'False'),
  ('CC(C)CSc1nc(-c2ccc(F)cc2)c(C#N)c(N2CCCCC2)n1', 'False'),
  ('CCCCCCC(=O)C(C)C', 'False'),
  ('c1ccc(Nc2ccccn2)cc1', 'False'),
  ('c1cc(C2CCCCC2)ccc1OCCCCCCN1CCNCC1', 'False'),
  ('O=C(C(=O)N1CCOCC1)c1ccc(O[C@H]2O[C@H](CO)[C@@H](O)[C@H](O)[C@@H]2O)cc1', 'False'),
  ('CCOc1ccc(/C=N/NC(=O)c2cccc3ccccc23)cc1OCC', 'False');
